This document collects IC50 values reported for cathepsin B (Bos taurus, UniProt P07688).
Respond with the bare value in µM.

Briefly, IC50 measured for CSCC(=O)[C@H](CCc1ccccc1)NC(=O)[C@H](CC(C)C)NC(=O)OCc1ccccc1 [202 (No. 534)] : 0.25

IC50 in this record for CC(C)C[C@H](NC(=O)COc1ccccc1)C(=O)N[C@@H](CC1CCCCC1)C(=O)CSCc1ccco1 [110 (No. 240)] : 3.3

====

Biological target: papain (Carica papaya, UniProt P00784)
Sequence (P00784 134-345): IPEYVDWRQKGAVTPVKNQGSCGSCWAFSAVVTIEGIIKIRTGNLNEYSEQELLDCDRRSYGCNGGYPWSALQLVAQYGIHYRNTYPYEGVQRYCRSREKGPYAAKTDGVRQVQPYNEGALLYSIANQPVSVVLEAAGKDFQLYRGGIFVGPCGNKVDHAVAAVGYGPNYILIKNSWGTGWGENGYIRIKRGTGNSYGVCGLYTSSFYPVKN
Experiment: Thiol protease inhibitory activity, papain (P-3125, Sigma)
Type: biochemical
Conditions: Table 3; read-out: IC50 papain
Experimental: Inhibitory activity against papain (P-3125, Sigma) and cathepsin B (C-6286, Sigma) was assayed according to the method described in a literature [Biochemical Journal, 201, 189 (1982)]. […]
attribute measured: pIC50
In plain terms, pIC50 is the concentration in mol/L turned into minus its base-10 logarithm.

Known value: papain (Carica papaya, UniProt P00784) pIC50 of the compound CCC(C)[C@H](NC(=O)OCC1CCCCC1)C(=O)N[C@@H](Cc1ccccc1)C(=O)CSCc1ccco1 (some centres unmarked) [135 (No. 288)] equals 4.23

Others:
papain (Carica papaya, UniProt P00784) data for CC(C)C[C@H](NC(=O)Cc1csc2ccccc12)C(=O)N[C@@H](Cc1ccccc1)C(=O)CSCc1ccco1 [162 (No. 345)] ; its pIC50: 6.02

Observed pIC50 on papain (Carica papaya, UniProt P00784), entry CCCC[C@H](NC(=O)[C@H](CC(C)C)NC(=O)COc1cccc(Cl)c1Cl)C(=O)CSCc1ccco1 [41 (No. 91)] , equals 4.68

Param item: CCCC[C@H](NC(=O)[C@H](CC(C)C)NC(=O)COc1cccc(C)c1)C(=O)CSCc1ccco1 [45 (No. 97)] ; param system: papain (Carica papaya, UniProt P00784); output pIC50: 6.29

Simply: CCCC[C@H](NC(=O)[C@H](CC(C)C)NC(=O)OCc1ccccn1)C(=O)CSCc1ccco1 [28 (No. 59)] , papain (Carica papaya, UniProt P00784), pIC50 = 5.47
